assaySystem: Focal adhesion kinase 1 (Homo sapiens) (UniProt Q05397)
Sequence (Q05397 whole entry, looked up): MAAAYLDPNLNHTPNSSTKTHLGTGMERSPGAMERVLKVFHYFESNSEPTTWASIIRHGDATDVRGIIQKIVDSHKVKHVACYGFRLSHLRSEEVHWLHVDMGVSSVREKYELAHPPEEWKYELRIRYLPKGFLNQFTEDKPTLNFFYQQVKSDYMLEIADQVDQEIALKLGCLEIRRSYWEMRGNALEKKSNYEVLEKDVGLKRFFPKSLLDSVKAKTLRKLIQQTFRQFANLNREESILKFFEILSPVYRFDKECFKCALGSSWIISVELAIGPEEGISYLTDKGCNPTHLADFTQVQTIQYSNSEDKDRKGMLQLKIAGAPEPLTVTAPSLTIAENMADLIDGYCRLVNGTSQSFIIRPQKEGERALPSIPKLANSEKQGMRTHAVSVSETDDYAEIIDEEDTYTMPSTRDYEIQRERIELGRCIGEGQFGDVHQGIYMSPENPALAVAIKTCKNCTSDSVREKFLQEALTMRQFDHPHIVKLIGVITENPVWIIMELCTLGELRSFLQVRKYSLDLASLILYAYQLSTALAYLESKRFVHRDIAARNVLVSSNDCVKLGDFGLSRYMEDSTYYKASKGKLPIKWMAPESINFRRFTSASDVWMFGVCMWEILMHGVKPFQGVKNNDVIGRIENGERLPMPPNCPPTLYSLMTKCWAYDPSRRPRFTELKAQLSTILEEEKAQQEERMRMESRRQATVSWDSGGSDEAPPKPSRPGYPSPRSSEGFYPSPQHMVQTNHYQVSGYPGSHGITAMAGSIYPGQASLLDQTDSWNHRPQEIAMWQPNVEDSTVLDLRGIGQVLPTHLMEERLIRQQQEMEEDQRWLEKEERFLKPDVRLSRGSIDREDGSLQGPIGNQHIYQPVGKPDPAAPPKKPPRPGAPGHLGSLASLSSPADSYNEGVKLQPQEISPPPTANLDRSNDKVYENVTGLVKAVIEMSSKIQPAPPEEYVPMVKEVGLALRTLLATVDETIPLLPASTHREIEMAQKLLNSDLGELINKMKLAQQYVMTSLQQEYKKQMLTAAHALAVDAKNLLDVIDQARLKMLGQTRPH
testDescription: small-molecule microarray binders of FAK, primary screen, biochemical, 635/667 nm fluorescence, BSA, DTT (AID 1130);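 further: composite of spot emission at 667 nm and signal to noise over triplicate slides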
studyConditions: PTK2 binding, 635 nm fluorescence, higher = more signal
Would you mind labelling by composite z-score? At or over 0.4 is class 1, under is class 0.

IN: Check this molecule for composite z-score at or above 0.4: C=CCNC(=O)[C@@H]1[C@H]2C(=O)O[C@H](c3ccccc3)[C@H](c3ccccc3)N2[C@H](c2ccc(OCCO)cc2)[C@@]12C(=O)Nc1ccc(C#CCNC(N)=O)cc12
OUT: class 0

IN: Check this molecule for composite z-score at or above 0.4: COC(=O)[C@@]1(Cc2ccccc2)[C@H]2c3cc(C(=O)N(C)C)n(Cc4nc5ccccc5[nH]4)c3C[C@H]2CN1C(=O)c1ccccc1
OUT: class 1

IN: Check this molecule for composite z-score at or above 0.4: COc1ccc(C(O)C2C=CC3C(=O)N(C)C(=O)C3N2Nc2ccccc2)cc1 (centres undefined)
OUT: class 0

IN: Check this molecule for composite z-score at or above 0.4: COc1c(C)cc(-c2cc3c(c(CCc4ccccc4)n2)[Si](C(C)C)(C(C)C)O[C@H]3c2ccccc2)cc1C
OUT: class 0

IN: Check this molecule for composite z-score at or above 0.4: COC(=O)Cn1c(C(=O)N(C)C)cc2c1C[C@H]1CN(C(=O)c3ccccc3)[C@@](Cc3ccccc3)(C(=O)OC)[C@@H]21
OUT: class 1

IN: Check this molecule for composite z-score at or above 0.4: CCCCN1CC=CC23O[C@@H]4C=CCCOC(=O)C4[C@H]2C(=O)N(CCO)[C@@H]3C1=O (some centres undefined)
OUT: class 0

IN: Check this molecule for composite z-score at or above 0.4: COCCOC(=O)N1C(=O)[C@@]2(c3cc(C#CCCO)ccc31)[C@H](c1ccc(O)cc1)N1[C@H](c3ccccc3)[C@H](c3ccccc3)OC(=O)[C@H]1[C@@H]2C(=O)NC[C@H](O)c1ccccc1
OUT: class 1

IN: Check this molecule for composite z-score at or above 0.4: CCCCCCCCCCC(O)C1C=CC2C(=O)N(C)C(=O)C2N1Nc1ccccc1 (centres undefined)
OUT: class 0

IN: Check this molecule for composite z-score at or above 0.4: COC(=O)[C@@]1(Cc2ccc(F)cc2)[C@H]2c3cc(C(=O)N(C)C)n(Cc4cccc5ccccc45)c3C[C@H]2CN1C(=O)c1ccccc1
OUT: class 1

IN: Check this molecule for composite z-score at or above 0.4: O=C1O[C@@H](c2ccccc2)[C@@H](c2ccccc2)N2[C@@H](c3ccc(OCCO)cc3)[C@]3(C(=O)Nc4ccc(C#CC5=CCCCC5)cc43)[C@@H](C(=O)Nc3nc4ccccc4s3)[C@H]12
OUT: class 0

IN: Check this molecule for composite z-score at or above 0.4: C=CC[C@]12N=C(c3ccc(OCCCO)cc3)O[C@H]1c1ccccc1N(CCC)C2=O
OUT: class 1

IN: Check this molecule for composite z-score at or above 0.4: COc1ccc(CCNC(=O)[C@@H]2c3ccccc3C(=O)N(C(C)C)[C@H]2c2ccc(CO)cc2)cc1
OUT: class 0

IN: Check this molecule for composite z-score at or above 0.4: C=C(C(=O)CC[C@@H](OC(=O)c1ccccc1-c1ccccc1C(=O)O)c1ccc(OCCO)cc1)C(C)C
OUT: class 0

IN: Check this molecule for composite z-score at or above 0.4: C=C(COC)C(=O)CC[C@H](OC(C)=O)c1ccc(CO)o1
OUT: class 0

IN: Check this molecule for composite z-score at or above 0.4: CCCCC=C[C@@H](NC(=O)C(C)(C)C)c1ccccc1
OUT: class 0

IN: Check this molecule for composite z-score at or above 0.4: COc1ccc([Si](C)(C)[C@@H]2[C@@H](CC(=O)N3Cc4ccccc4C[C@H]3CO)O[C@]3(C(=O)N(Cc4ccc(I)cc4)c4ccccc43)[C@H]2C)cc1
OUT: class 0

IN: Check this molecule for composite z-score at or above 0.4: C=C(CCCC)C(=O)CC[C@@H](OC(C)=O)c1ccc(OCCO)cc1
OUT: class 0

IN: Check this molecule for composite z-score at or above 0.4: C=CCNC(=O)[C@H]1[C@@H]2C(=O)O[C@@H](c3ccccc3)[C@@H](c3ccccc3)N2[C@@H](c2ccc(O)cc2)[C@]12C(=O)Nc1ccccc12
OUT: class 0

* * *

System: Sonic hedgehog protein (Shh)
testDescription: small-molecule binders of Shh protein, primary screen, biochemical, small-molecule microarray, 635/667 nm fluorescence (AID 1151);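 further: Shh protein binding to compounds spotted on small-molecule microarray slides; score combines spot fluorescence intensity with signal-to-noise across triplicate slides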
studyConditions: small-molecule microarray binding, 635 nm fluorescence; higher = more signal
Would you mind labelling by composite z-score? At or over -0.5 is YES, under is NO.

IN: Check this compound for composite z-score at or above -0.5: C#CCN(C(=O)OC(C)(C)C)[C@H](CO)c1ccccc1
OUT: YES

IN: Check this compound for composite z-score at or above -0.5: CC1(C)OB(/C=C\CC(OC(=O)c2ccncc2)c2ccccc2)OC1(C)C (stereo not given)
OUT: YES

IN: Check this compound for composite z-score at or above -0.5: CC(C)c1ccc(NN2C(C(O)C(C)c3ccccc3)C=CC3C(=O)N(c4ccccc4)C(=O)C32)cc1 (stereo not given)
OUT: YES

IN: Check this compound for composite z-score at or above -0.5: C[C@@]1([C@@H](NS(=O)(=O)c2cccc3cccnc23)c2ccc(-c3ccccc3)cc2)C[C@H]1C1CCCCC1
OUT: NO

* * *

assaySystem: Torsin-1A-interacting protein 2 (Homo sapiens) (UniProt Q8NFQ8)
Sequence (Q8NFQ8 whole entry, looked up): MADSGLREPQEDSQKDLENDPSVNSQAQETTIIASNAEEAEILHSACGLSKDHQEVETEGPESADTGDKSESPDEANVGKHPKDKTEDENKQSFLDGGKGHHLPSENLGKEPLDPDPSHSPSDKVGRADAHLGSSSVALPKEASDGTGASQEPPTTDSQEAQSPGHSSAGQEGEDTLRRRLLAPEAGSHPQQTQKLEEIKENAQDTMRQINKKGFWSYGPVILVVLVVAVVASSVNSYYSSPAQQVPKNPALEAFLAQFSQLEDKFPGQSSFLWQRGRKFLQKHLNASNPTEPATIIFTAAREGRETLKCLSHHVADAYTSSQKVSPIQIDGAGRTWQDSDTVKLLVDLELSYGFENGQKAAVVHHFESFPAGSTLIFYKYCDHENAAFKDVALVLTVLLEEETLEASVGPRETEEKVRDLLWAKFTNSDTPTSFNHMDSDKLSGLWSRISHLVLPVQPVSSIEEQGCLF
testDescription: LULL1 binders on small-molecule microarray, primary screen, cell lysate, human LULL1 lysate, 635/667 nm fluorescence (AID 1092);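 further: probe is lysate of COS7 cells overexpressing human LULL1; score merges per-feature 667 nm fluorescence with signal-to-noise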
studyConditions: hLULL1 lysate binding, 635 nm fluorescence, higher = more signal
measuredParameter: composite z-score
Would you mind answering with just the numeric figure?

IN: Item: COc1ccc([Si](C)(C)[C@H]2[C@H](CC(=O)N(CCO)Cc3ccccc3)O[C@@]3(C(=O)N(Cc4ccc(N5C(=O)c6cccc7cccc5c67)cc4)c4ccccc43)[C@@H]2C)cc1 Test system: Torsin-1A-interacting protein 2 (Homo sapiens) (UniProt Q8NFQ8) Read-out: composite z-score Value: ?
OUT: 2.15

IN: Item: CC1(C)OB(/C=C\CC(OC(=O)c2ccncc2)c2ccccc2)OC1(C)C (stereo not drawn) Test system: Torsin-1A-interacting protein 2 (Homo sapiens) (UniProt Q8NFQ8) Read-out: composite z-score Value: ?
OUT: 0.962

IN: Item: COc1cc2c(cc1OC)CN(C(=O)[C@@H]1[C@H]3C(=O)O[C@H](c4ccccc4)[C@H](c4ccccc4)N3[C@H](c3ccc(O)cc3)[C@@]13C(=O)Nc1ccc(C#CC4=CCCCC4)cc13)CC2 Test system: Torsin-1A-interacting protein 2 (Homo sapiens) (UniProt Q8NFQ8) Read-out: composite z-score Value: ?
OUT: 2.44

* * *

testDescription: small-molecule microarray binders of probe aCHRDL2, primary screen, biochemical, biotinylated probe, 635/667 nm fluorescence (AID 1100)
studyConditions: higher = more signal
measuredParameter: composite z-score

IN: Query (compound): O=C1O[C@H](c2ccccc2)[C@H](c2ccccc2)N2[C@H]1[C@@H](C(=O)O)[C@]1(C(=O)Nc3ccccc31)[C@H]2c1ccc(OCCO)cc1 ; field requested: composite z-score
OUT: -0.0097

IN: Query (compound): COC(=O)[C@@]1(Cc2ccc(OC)cc2)[C@H]2c3cc(C(=O)N(C)C)n(Cc4c(CO)[nH]cc(C)c4=O)c3C[C@H]2CN1C(=O)c1ccccc1 ; field requested: composite z-score
OUT: 0.731

IN: Query (compound): [N-]=[N+]=NCc1ccccc1[C@H]1OC(c2ccc(OCCCO)cc2)=N[C@@]1(CCS(=O)(=O)c1ccccc1)C(=O)NCCN1CCOCC1 ; field requested: composite z-score
OUT: 1.12

IN: Query (compound): CC(C)(C)OC(=O)N1[C@@H](C=C(Br)Br)COC1(C)C ; field requested: composite z-score
OUT: -0.282

IN: Query (compound): COc1c(C)cc(-c2cc3c(c(CCc4ccccc4)n2)[Si](C(C)C)(C(C)C)O[C@H]3c2ccccc2)cc1C ; field requested: composite z-score
OUT: -0.169

IN: Query (compound): CCOC(=O)C1=CCC(c2cccn2C(=O)OC(C)(C)C)N(S(=O)(=O)c2ccc(C)cc2)C1 (stereo not given) ; field requested: composite z-score
OUT: 0.574

IN: Query (compound): COCCCNC(=O)[C@@]1(Cc2ccccc2I)c2ccccc2C(=O)N(Cc2ccccc2C(F)(F)F)[C@H]1c1ccc(CO)cc1 ; field requested: composite z-score
OUT: 0.883

IN: Query (compound): C[C@H]1C2[C@H](Cc3ccccc3)NC(=O)[C@]23C(=O)N[C@@H](Cc2ccccc2)C(=O)N2CCC[C@H]2C(=O)NC/C=C/CC/C=C/C3[C@@H]2O[C@]12C (stereo not given in full) ; field requested: composite z-score
OUT: -0.684

IN: Query (compound): COC(=O)[C@]1(Cc2ccccc2CN=[N+]=[N-])N=C(c2ccc(OCCCO)cc2)O[C@@H]1c1ccccc1N=[N+]=[N-] ; field requested: composite z-score
OUT: 0.172

IN: Query (compound): O=C1NC(=O)C2C1C=CC(C(O)C(O)CO)N2Nc1ccccn1 (stereo not given) ; field requested: composite z-score
OUT: -0.104
